Below, each of the molecules is paired with its reported Ratio ED50 value.
Species on record: Bos taurus
ASSAY_SUMMARY: Ratio of compound ED50 to taxol ED50 for bovine brain tubulin assembly at 1 mg/ml of tubulin concentration
Could you keep your reply to the number by itself?

Before answering, review these 4 worked examples.
CCCC(=O)N[C@@H](c1ccccc1)[C@@H](O)C(=O)O[C@H]1C[C@@]2(O)[C@@H](OC(=O)c3ccccc3)[C@@H]3[C@]4(OC(C)=O)CO[C@@H]4C[C@H](O)[C@@]3(C)C(=O)[C@H](OC(C)=O)C(=C1C)C2(C)C = 2.04
CCCCCC(=O)N[C@@H](c1ccccc1)[C@@H](O)C(=O)O[C@H]1C[C@@]2(O)[C@@H](OC(=O)c3ccccc3)[C@@H]3[C@]4(OC(C)=O)CO[C@@H]4C[C@H](O)[C@@]3(C)C(=O)[C@H](O)C(=C1C)C2(C)C = 2.57
CCCCCC(=O)N[C@@H](c1ccccc1)[C@@H](O)C(=O)O[C@H]1C[C@@]2(O)[C@@H](OC(=O)c3ccccc3)[C@@H]3[C@]4(OC(C)=O)CO[C@@H]4C[C@H](O)[C@@]3(C)C(=O)[C@H](OC(C)=O)C(=C1C)C2(C)C [TAXOL C] = 1.05
CCCCCC(=O)N(C)[C@@H](c1ccccc1)[C@@H](O)C(=O)O[C@H]1C[C@@]2(O)[C@@H](OC(=O)c3ccccc3)[C@@H]3[C@]4(OC(C)=O)CO[C@@H]4C[C@H](O)[C@@]3(C)C(=O)[C@H](OC(C)=O)C(=C1C)C2(C)C = 1.66

Now take the following molecule into account.
Name the reported Ratio ED50 value associated with the molecule C/C=C(\C)C(=O)N[C@@H](c1ccccc1)[C@@H](O)C(=O)O[C@H]1C[C@@]2(O)[C@@H](OC(=O)c3ccccc3)[C@@H]3[C@]4(OC(C)=O)CO[C@@H]4C[C@H](O)[C@@]3(C)C(=O)[C@H](OC(C)=O)C(=C1C)C2(C)C
1.05
